B1: library; a variant is named by its letters at N, in order (parent)
chain: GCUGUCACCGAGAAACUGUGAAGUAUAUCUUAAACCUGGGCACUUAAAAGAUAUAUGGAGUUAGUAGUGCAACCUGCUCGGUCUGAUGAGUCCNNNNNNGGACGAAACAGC

Variants of: B1
Assay: FACS-Seq fitted mean relative fluorescence mCherry/BFP without ligand (log10 relative fluorescence); HEK293T; ligand: cyclic di-GMP (c-di-GMP-II aptamer); higher = higher reporter protein expression
Conditions: ligand present: no
quantity_kind: FACS-Seq fitted mean (log10)
Give bare numbers.

Study these solved cases before continuing.
- GUUAAU: -0.336
- CUUUCA: -0.391
- CGAAAA: -0.423
- ACAAAA: -0.498
- ACUUUU: -0.0638
- CAAUCA: -0.546
- GGAGGC: 0.132
- GUACGC: -0.788

Look up FACS-Seq fitted mean (log10) for the entries below, preserving their order.
1. UCAUUU
2. UCAAUG
3. GUGUUG
4. UACCAU

Ans:
[-0.43, -0.476, -0.394, -0.473]
